Cited source: the supplement of paper PMC12420376

test system: OVCAR8; experiment: drug sensitivity score (DSS2) on cancer cell count; higher = more sensitive; extreme values may be limits of the assay; details: co-cultured fibroblast: BJHTERT; 72 h
measured-attribute: drug sensitivity score (DSS)
// units = DSS; emit number, no label

Use the examples below as a reference point.
[[record]]
compound = "CO[C@H]1C[C@@H]2CC[C@@H](C)[C@@](O)(O2)C(=O)C(=O)N2CCCC[C@H]2C(=O)O[C@H]([C@H](C)C[C@@H]2CC[C@@H](OP(C)(C)=O)[C@H](OC)C2)CC(=O)[C@H](C)/C=C(\\C)[C@@H](O)[C@@H](OC)C(=O)[C@H](C)C[C@H](C)/C=C/C=C/C=C/1C [Ridaforolimus]"
study_system = "OVCAR8"
readout_number = 7.1

[[record]]
compound = "C[C@@H]1COCCN1c1cc(C2([S@](C)(=N)=O)CC2)nc(-c2cc[nH]c3nccc2-3)n1 [AZD6738]"
study_system = "OVCAR8"
readout_number = 11.1

[[record]]
compound = "Nc1cc(F)ccc1NC(=O)c1ccc(CNC(=O)/C=C/c2cccnc2)cc1 [Tucidinostat]"
study_system = "OVCAR8"
readout_number = 8

[[record]]
compound = "CCCCc1nc2cc(/C=C/C(=O)NO)ccc2n1CCN(CC)CC [Pracinostat]"
study_system = "OVCAR8"
readout_number = 23.1

[[record]]
compound = "O=C1CCC(N2C(=O)c3ccccc3C2=O)C(=O)N1 (centres undefined) [Thalidomide]"
study_system = "OVCAR8"
readout_number = 0


-- ask Suppose we examine the compound CNC(=O)CN1CCC(Oc2cc3c(Nc4cccc(Cl)c4F)ncnc3cc2OC)CC1 [Sapitinib] ; what drug sensitivity score value has been reported?
-- reply 1.7

-- ask Suppose we examine the compound COC(=O)c1ccc2c(c1)[nH]c1ncnc(NCCCN3CCCCC3)c12 [UM729] ; what drug sensitivity score value has been reported?
-- reply 6.9

---

system: KURAMOCHI; assay: drug sensitivity score (DSS2) on cancer cell count; higher = more sensitive; extreme values may be limits of the assay; details: co-cultured fibroblast: WI38; 72 h
Kind request: treat 5 DSS as inclusive, so drug sensitivity score at 5 DSS or higher is fulfilled, anything lower is not fulfilled.

These recorded examples may help you get a feel for the data.
[[record]]
record_smiles = "CC(=O)Nc1ccc(C(=O)Nc2ccccc2N)cc1"
class_name = "not fulfilled"

[[record]]
record_smiles = "CNC(=O)c1cccc(-c2ccc3c(N4CCOC[C@@H]4C)nc(N4CCOC[C@@H]4C)nc3n2)c1"
class_name = "fulfilled"

[[record]]
record_smiles = "CNC(=O)c1cc(COc2nnc(Nc3ccc(Cl)cc3)c3ccoc23)ccn1"
class_name = "not fulfilled"

[[record]]
record_smiles = "CCCS(=O)(=O)Nc1ccc(F)c(C(=O)c2c[nH]c3ncc(-c4ccc(Cl)cc4)cc23)c1F"
class_name = "not fulfilled"

[[record]]
record_smiles = "CCN1CCN(Cc2ccc(Nc3ncc(F)c(-c4cc(F)c5nc(C)n(C(C)C)c5c4)n3)nc2)CC1"
class_name = "fulfilled"

[[record]]
record_smiles = "CC(C)C[C@H](NC(=O)[C@H](CCc1ccccc1)NC(=O)CN1CCOCC1)C(=O)N[C@@H](Cc1ccccc1)C(=O)N[C@@H](CC(C)C)C(=O)[C@@]1(C)CO1"
class_name = "fulfilled"


-- ask Determine whether measured drug sensitivity score meets or exceeds 5 DSS for C[C@H]1CNCCCN1S(=O)(=O)c1cccc2cncc(F)c12
-- reply not fulfilled
